# Test system: NCI/ADR-RES ovarian
# Procedure text: NCI tumour cell line growth inhibition, 48 h
Readout: TGI

- Molecule: "COc1cc(O)cc(/C=C/c2ccc(O)cc2)c1"
  Study system: "NCI/ADR-RES ovarian"
  Readout: "TGI"
  Readout value: "> 100 µM"
- Molecule: "Oc1ccc(-c2nnc3sc(-c4ccc(F)c(Oc5ccccc5)c4)nn23)cc1"
  Study system: "NCI/ADR-RES ovarian"
  Readout: "TGI"
  Readout value: "> 100 µM"

# return recorded TGI for input "O=C1/C(=C\c2ccc(Cl)cc2Cl)Sc2scc(-c3cccc([N+](=O)[O-])c3)[n+]21" 41.9 µM

# return recorded TGI for input CC(=O)C1C(=O)C(=O)N(c2cccc(C)c2C)C1=O (stereo not given) > 100 µM

# return recorded TGI for input "COC(=O)[C@@H]1CN(C(=O)c2ccccc2)C(=O)N1" > 100 µM

# return recorded TGI for input "COc1ccc(CCN2C(=O)C=CC2=O)cc1OC" 74.5 µM

# return recorded TGI for input "C=C1C(=O)O[C@@H]2C[C@@]3(C)CCC[C@H](C)C3=C[C@H]12" 27.9 µM

---

Listed here: items and their measured TGI.
# Test system: OVCAR-4 ovarian
# Procedure text: NCI tumour cell line growth inhibition, 48 h

Would you please look over these solved cases?
- Compound: "CCOc1cccc(/C=N/NC(=O)c2ccc(Nc3ccnc(C(F)(F)F)c3)cc2)c1O"
  TGI: "> 100 µM"
- Compound: "N#Cc1ccc(Oc2nc3ccccc3nc2-c2ccccc2)cc1"
  TGI: "> 100 µM"

# return recorded TGI for input "C1=Cc2ccccc2Nc2ccccc21" > 100 µM

# return recorded TGI for input "COC(=O)CCC(=O)CC(=O)C1=NS(=O)(=O)c2nc(S(N)(=O)=O)c(Cl)cc2N1" > 100 µM

---

Listed here: items and their measured GI50.
# System: KM12 colon
# Procedure text: NCI tumour cell line growth inhibition, 48 h

Would you please look over these solved cases?
- Molecule: "CC[C@@H](C(=O)[C@@H](C)[C@@H](O)[C@H](C)[C@@H]1O[C@@H]([C@@H](CC)C(=O)O)CC[C@@H]1C)C1O[C@]2(C=CC(=O)[C@]3(CC[C@@](C)([C@H]4CC[C@](O)(CC)[C@H](C)O4)O3)O2)[C@H](C)C[C@@H]1C (stereo partly drawn)"
  Readout: "GI50"
  Readout value: "515 nM"
- Molecule: "C/C=C(\\C)C(=O)N[C@H]1CC[C@]2(C)C3CC[C@@]4(C)C(CC[C@@H]4C(C)N(C)C)C3CCC2[C@H]1OC(C)=O (stereo partly drawn)"
  Readout: "GI50"
  Readout value: "2000 nM"

# return recorded GI50 for input "O=[N+]([O-])c1ccc(Br)c([N+](=O)[O-])c1" 1800 nM

---

# Tested on: UACC-62 melanoma
# Procedure text: NCI tumour cell line growth inhibition, 48 h
Listed here: items and their measured log10 TGI.
Please note: log10 values; quantity TGI; unit µM.

Would you please look over these solved cases?
- Molecule: "O=C(Nc1ccccc1O)c1cccc(NC2=C(Cl)C(=O)N(Cc3ccccc3)C2=O)c1"
  log10 TGI: 0.83
- Molecule: "C[n+]1c2ccccc2c(CNc2ccc(S(=O)(=O)N=C(N)N)cc2)c2ccccc21"
  log10 TGI: 1.62
- Molecule: "CC[C@@H](C(=O)[C@@H](C)[C@@H](O)[C@H](C)[C@@H]1O[C@@H]([C@@H](CC)C(=O)O)CC[C@@H]1C)C1O[C@]2(C=CC(=O)[C@]3(CC[C@@](C)([C@H]4CC[C@](O)(CC)[C@H](C)O4)O3)O2)[C@H](C)C[C@@H]1C (stereo partly drawn)"
  log10 TGI: 0.43
- Molecule: "CCOC(=O)c1ccc(Nc2nc3cc(C(F)(F)F)ccc3nc2-c2ccccc2)cc1"
  log10 TGI: 1.47

We now examine a further molecule.
# return recorded log10 TGI for input COC(=O)C1=C(O)c2cc(OC)c(OC)c(OC)c2[C@H](c2cc(OC)c(OC)c(OC)c2)C1C(=O)OC (stereo partly drawn) 1.88
